Attribution: paper PMC12254355

Ends that are not written are not given here.
A short record of CC50 vs HEK293T cells observed with HEK293T cells follows.
Please state the value followed by its unit.

# example entries with known answers
{"columns": ["Sequence", "CC50 vs HEK293T cells"],
 "data": [
  ["RKFKWGSFKKILSAGKKLFKKAKKLSK [Arachnoserver-2]", "10 µM"],
  ["LKLKSILGKLGVIL [UniprotKB-4]", "10 µM"]
]}

Now consider a different sequence.
What reported CC50 vs HEK293T cells corresponds to KLLKIGLKSFARVLKKVL [UniprotKB-1] on HEK293T cells?
10 µM

====

Quick reference for CC50 vs HEK293T cells (source data of Figure 4a) among some sequences
- Test system: HEK293T cells
- Conditions Used: 24 h
Ends that are not written are not given here.
Reply with just the number (in µM).

What reported CC50 vs HEK293T cells (source data of Figure 4a) corresponds to KWGKLFSAGKKLLKKAKKL [Arachnoserver-4] on HEK293T cells?
19.57

What reported CC50 vs HEK293T cells (source data of Figure 4a) corresponds to GKWLISSLVAKHL [UniprotKB-6] on HEK293T cells?
19.46

What reported CC50 vs HEK293T cells (source data of Figure 4a) corresponds to RKFKWGSFKKILSAGKKLFKKAKKLSK [Arachnoserver-2] on HEK293T cells?
9.929

What reported CC50 vs HEK293T cells (source data of Figure 4a) corresponds to KLLKIGLKSFARVLKKVL [UniprotKB-1] on HEK293T cells?
10.13

What reported CC50 vs HEK293T cells (source data of Figure 4a) corresponds to FLKKIWRSKLVKRL [UniprotKB-9] on HEK293T cells?
20.18
